Measured IC50, listed per entry.
target: HCV NS3 helicase NS3h_1b(con1) (Hepatitis C virus genotype 1b); construct: truncated C-terminally His-tagged NS3 proteins lacking the N-terminal protease, called NS3h; His-tag (C); made in house; test: biochemical; type: biochemical, hepatitis C virus genotype 1b(con1); settings: Target Potency MBHA (IC50 avg., μM) 1b (con1), genotype 1b (con1)
EXPERIMENTAL READOUT: IC50 (µM)

- COc1ccc(C(=O)Nc2ccc(-c3nc4ccc(-c5nc6ccc(C)c(S(=O)(=O)O)c6s5)cc4s3)cc2)cc1 [Compound 8]: 10
- Cc1ccc2nc(-c3ccc4nc(-c5ccc(NC(=O)c6ccc(Cl)cc6)cc5)sc4c3)sc2c1S(=O)(=O)O [Compound 10]: 3.4

---

assay: Aqueous solubility (direct UV kinetic); format: physicochemical; conditions: mock assay matrix with TWEEN 20, 5% DMSO, pH 6.5, aqueous with cosolvent or surfactant or cyclodextrin, kinetic from dmso stock; read-out: Aqueous Solubility, Assay Matrix
EXPERIMENTAL READOUT: solubility (µg/mL)

- Cc1ccc2nc(-c3ccc4nc(-c5ccc(NC(=O)c6cccc(Cl)c6)cc5)sc4c3)sc2c1S(=O)(=O)O [Compound 17]: 17.8

---

target: HCV NS3 helicase NS3h_1b(con1) (Hepatitis C virus genotype 1b, UniProt Q9WMX2); construct: truncated C-terminally His-tagged NS3 proteins lacking the N-terminal protease, called NS3h; His-tag (C); made in house; experiment: MBHA screen of NCI mechanistic set library at 20 μM (percent inhibition, compound interference); assay type: biochemical; details: compounds at 20 μM, MBHA with a DNA substrate; calculated from Equation 1
Sequence (Q9WMX2 1192-1657): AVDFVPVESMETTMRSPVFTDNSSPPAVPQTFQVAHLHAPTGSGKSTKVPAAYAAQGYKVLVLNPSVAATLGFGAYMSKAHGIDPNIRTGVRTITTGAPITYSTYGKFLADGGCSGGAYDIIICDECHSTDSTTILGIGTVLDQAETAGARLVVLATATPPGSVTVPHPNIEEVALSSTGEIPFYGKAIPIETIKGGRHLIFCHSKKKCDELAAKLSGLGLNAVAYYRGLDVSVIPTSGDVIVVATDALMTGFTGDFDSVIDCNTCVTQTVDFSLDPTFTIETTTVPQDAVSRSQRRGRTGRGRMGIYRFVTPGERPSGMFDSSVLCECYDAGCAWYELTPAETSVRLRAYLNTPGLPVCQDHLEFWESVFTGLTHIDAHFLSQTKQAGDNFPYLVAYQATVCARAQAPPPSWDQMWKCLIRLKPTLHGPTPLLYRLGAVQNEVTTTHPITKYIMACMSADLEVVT
// Inh. (%) (Inhibition) lookup, one value per entry
EXPERIMENTAL READOUT: Inh. (%) (Inhibition)

- CCCC(=O)OCC1OC(n2ccc(N)nc2=O)C(OC(=O)CCC)C1OC(=O)CCC (centres unmarked): 10.9
- COC1CC(C)C(OC)c2cc(O)cc(c2O)NC(=O)/C(C)=C/C=C\C(C)C(OC(N)=O)/C(C)=C/C(C)C1OC (centres unmarked): 12.0
- C[C@H]1O[C@@H](c2ccc3c(c2O)C(=O)C2=C(C3=O)[C@@]3(O)C(=O)C[C@](C)(O)C[C@@]3(O)C=C2)C[C@@H](O)[C@@H]1O: −39.0
- CC1=NC(C(C)C)C(=O)O1 (centres unmarked): 9.0
- CN=c1sc2c(n1C)C(=O)c1ccccc1C2=O: −6.6
- Nc1ncnc2c1nnn2[C@@H]1O[C@H](CO)[C@@H](O)[C@H]1O: 8.5
- Cc1cc(N(CCCl)CCCl)ccc1/C=N/NC(=O)Cc1cc(=O)oc2cc(O)ccc12: 7.5
- CC(C)(Br)C(=O)C(Br)Br: 7.0

---

target: HCV NS3 helicase NS3h_1b(con1) (Hepatitis C virus genotype 1b); construct: truncated C-terminally His-tagged NS3 proteins lacking the N-terminal protease, called NS3h; His-tag (C); made in house; experiment: MBHA screen of NCI mechanistic set library at 20 μM (percent inhibition, compound interference); type: biochemical; conditions: compounds at 20 μM, MBHA with DNA substrate; assay interference calculated with Equation 2
We use 0.9 Ratio as the dividing line for Int.* (Ratio) (Interference): on or above the line is T, below is F.

* CN(C)c1ccc(/C=N/N=C2\C(=O)Nc3c(Cl)cc(Cl)cc32)cc1 | T
* [Cl-].[Cl-].[Cl-].[Rh+3].c1ccc(-c2ccnc3c2ccc2c(-c4ccccc4)ccnc23)cc1.c1ccc(-c2ccnc3c2ccc2c(-c4ccccc4)ccnc23)cc1.c1ccc(-c2ccnc3c2ccc2c(-c4ccccc4)ccnc23)cc1 | F
* CCCn1c(=O)c2ccccc2[n+]2c(-c3ccc([N+](=O)[O-])cc3)csc12.[Br-] | T
* CC(=O)OCc1c2ccccc2c(C)c2c1cc(F)c1ccccc12 | F
* CN(C)c1ccc(/C=C2\CCc3ccccc3C2=O)cc1Br | T
* OCCNCCN1CCN(CCCN2c3ccccc3Sc3ccc(C(F)(F)F)cc32)CC1 | F
* CN(C)c1cccc(F)c1C(=O)NC(=O)Nc1ccc(Cl)cc1 | T
* CC[n+]1c(-c2ccccc2)c2cc(N)ccc2c2ccc(N)cc21.[Br-] | F
* C[C@@H]1CC[C@@]2(OC1)O[C@H]1CC3[C@@H]4CC=C5C[C@@H](O[C@@H]6O[C@H](CO)[C@@H](O[C@@H]7O[C@@H](C)[C@H](O[C@@H]8O[C@@H](C)[C@H](O)[C@@H](O)[C@@H]8O)[C@@H](O)[C@H]7O)[C@H](O)[C@H]6O[C@@H]6O[C@@H](C)C(O)[C@@H](O)[C@H]6O)CC[C@]5(C)[C@H]4CC[C@]3(C)[C@H]1[C@@H]2C (stereo partly shown) | F
* CC(C)C1=CC2=CC[C@@H]3[C@](C)(CCC[C@@]3(C)C(=O)O)[C@H]2CC1 | T
* O=C(NCCCCCCCCNC(=O)c1cccc2ccccc12)c1cccc2ccccc12 | T
